Reference source for all entries: the array DNA melting data of Ke et al. (doi:10.1101/2024.01.08.574731)

test: melting temperature; fluorescence melt of hairpins on a sequencing array, two-state fit, raised by 9.35 °C to match UV melts; conditions: sodium 0.088 M
Labels assigned by Tm range: bottom end: < 40 °C; midrange: ≥ 40 °C and < 50 °C; top end: ≥ 50 °C

Illustrative cases are given below, each with its answer.
| query.sequence | cat |
| --- | --- |
| GCTGTCTCGAAAGAGAGC (((..(((....)))))) | bottom end |
| GCAACACGAAAGTGGTGC (((.(((....))).))) | top end |
| GGTTAACGAAAGTTTACC (((.(((....))).))) | midrange |

Here is the next item to consider.
Category lookup for the sequence TTCTGGAAACAGAA (((((....)))))
bottom end
